system: A-375; assay: Antiproliferative activity against human A-375 cells assessed as cell growth inhibition incubated for 48 hrs by MTT assay; assay type: functional, cell-based; details: A-375, 48 h
Record form. Attribute: IC50. Fill in for each entry.
Numbers only, in µM.

CHEMICAL SMILES | EXPERIMENTAL READOUT | READOUT VALUE
Nc1ccccc1NC(=O)c1ccc(CNC(=O)OCc2cccnc2)cc1 | IC50 | 4.91
CCCNNC(=O)CCCNCc1ccc(-c2cccc(-c3ccccc3)c2C)nc1OC | IC50 | 3.46

Here's the next entry for you.
Check the records and state IC50 for CCCNNC(=O)c1cnc(NCCNCc2ccc(-c3cccc(-c4ccccc4)c3C)nc2OC)cn1
10.2

Values from ChEMBL document CHEMBL6109156
